Run Description: Antiproliferative activity against human CMY cells after 72 hrs in presence of SAHA by MTT assay
Type: functional, cell-based
Property: pIC50
Schema: pIC50 number; meaning minus log10 of the concentration expressed in molar units.

Value of pIC50 reported for the molecule COc1cc(/C=C/C(=O)N2CCC=CC2=O)cc(OC)c1OC [PIPLARTINE] is 6.35

====

System: HL-60
Run Description: Antiproliferative activity against Ara-C resistant human HL60 cells after 72 hrs in presence of SAHA by MTT assay
Format: functional, cell-based
Condition Label: HL-60, 72 h
Property: IC50 (nM)
State the answer as a number, implicitly in nM.

The recorded IC50 for `COc1cc(/C=C/C(=O)N2CCC=CC2=O)cc(OC)c1OC` is 1130
